# target.under.test: MCL-1 (Homo sapiens (Human), UniProt Q07820, K194A/K197A/R201A)
# Sequence (Q07820 whole entry K194A/K197A/R201A, looked up): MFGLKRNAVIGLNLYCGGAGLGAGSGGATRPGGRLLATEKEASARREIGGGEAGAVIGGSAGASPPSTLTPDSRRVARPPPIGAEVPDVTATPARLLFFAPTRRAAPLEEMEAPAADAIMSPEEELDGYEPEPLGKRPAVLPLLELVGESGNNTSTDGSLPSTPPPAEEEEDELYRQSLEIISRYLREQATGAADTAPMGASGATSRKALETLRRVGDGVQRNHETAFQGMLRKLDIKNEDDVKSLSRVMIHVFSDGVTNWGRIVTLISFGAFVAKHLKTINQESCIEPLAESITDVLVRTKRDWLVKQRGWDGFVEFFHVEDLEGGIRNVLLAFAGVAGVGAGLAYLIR
# assay.explanation: Protein-compound interaction assay (SPR assay 8)
# reported.conditions: immobilized MBP-MCL-1, 25° C., read-out: KD (geo mean)

[
  {
    "compound": "Cc1c2c(nn1C)CN(C)CCCCn1c(C(=O)O)c(CCCOc3cccc4cc(F)ccc34)c3ccc(Cl)c-2c31 (single isomer, unassigned; enantiomer 1) [Example 31]",
    "Kd": "0.43 nM"
  },
  {
    "compound": "Cc1c2c(nn1C)N(C)CCCCCn1c(C(=O)O)c(CCCOc3cccc4ccccc34)c3ccc(Cl)c-2c31 (single isomer, unassigned) [Example 72]",
    "Kd": "11 nM"
  },
  {
    "compound": "Cc1c2c(nn1CCCN1CCN(C)CC1)COCCCCn1c(C(=O)O)c(CCCOc3cccc4ccccc34)c3ccc(Cl)c-2c31 (single isomer, unassigned; enantiomer 1) [Example 49]",
    "Kd": "1.7 nM"
  },
  {
    "compound": "Cc1c2c(nn1C)COCC1CC1Cn1c(C(=O)O)c(CCCOc3cccc4ccccc34)c3ccc(Cl)c-2c31 (single isomer, unassigned; stereoisomer 1) [Example 65]",
    "Kd": "3.6 nM"
  }
]

---

# System: SUDHL5
# assay.explanation: Induction of cytotoxicity (Assay 6), SUDHL5
# reported.conditions: read-out: Cytotox SUDHL5 IC50 (median); SUDHL5 cells, 5 hours, CellTiter-Glo
Under this convention, label 1 denotes IC50 strictly below 6 µM and label 0 denotes IC50 at or above 6 µM.

[
  {
    "molecule": "CCc1nn(CCN2CCOCC2)c2c1-c1c(Cl)ccc3c(CCCOc4cccc5ccccc45)c(C(=O)O)n(c13)C/C=C\\CN(C)C2 (single isomer, unassigned; enantiomer 1) [Example 43]",
    "assigned.class": "label 1"
  },
  {
    "molecule": "CCc1nn(C)c2c1-c1c(Cl)ccc3c(CCCOc4cccc5cc(F)ccc45)c(C(=O)O)n(c13)CCCCOC2 (single isomer, unassigned; enantiomer 2) [Example 35]",
    "assigned.class": "label 0"
  },
  {
    "molecule": "CCc1nn(CCN2CCOCC2)c2c1-c1c(Cl)ccc3c(CCCOc4cccc5ccccc45)c(C(=O)O)n(c13)CCCCN(C)C2 (single isomer, unassigned; enantiomer 1) [Example 46]",
    "assigned.class": "label 1"
  },
  {
    "molecule": "Cc1c2c(nn1CCCN1CCN(C)CC1)COCCCCn1c(C(=O)O)c(CCCOc3cccc4ccccc34)c3ccc(Cl)c-2c31 (single isomer, unassigned; enantiomer 2) [Example 50]",
    "assigned.class": "label 0"
  },
  {
    "molecule": "CCc1c2c(nn1C)N(CCC1CCOCC1)CCCCCn1c(C(=O)O)c(CCCOc3cccc4cc(F)ccc34)c3ccc(Cl)c-2c31 (single isomer, unassigned; enantiomer 2) [Example 82]",
    "assigned.class": "label 0"
  }
]

---

# Tested on: SUDHL10
# assay.explanation: Induction of cytotoxicity (Assay 6), SUDHL10
# reported.conditions: read-out: Cytotox SUDHL10 IC50 (median); SUDHL10 cells, 5 hours, CellTiter-Glo
pIC50: −log10 of the molar value.
parameter: pIC50

[
  {
    "compound": "Cc1nn(C)c2c1-c1c(Cl)ccc3c(CCCOc4cccc5ccccc45)c(C(=O)O)n(c13)CCCCOC2 (single isomer, unassigned; enantiomer 2)",
    "parameter": "pIC50",
    "comparison.operator": "<",
    "observed": 4.48
  },
  {
    "compound": "Cc1c2c(nn1C)N(C)CCCCCn1c(C(=O)O)c(CCCOc3cccc4cc(F)ccc34)c3ccc(Cl)c-2c31 (racemic) [Example 74]",
    "parameter": "pIC50",
    "comparison.operator": "=",
    "observed": 5.89
  },
  {
    "compound": "CCc1c2c(nn1C)N(CCC1CCOCC1)CCCCCn1c(C(=O)O)c(CCCOc3cccc4cc(F)ccc34)c3ccc(Cl)c-2c31 (single isomer, unassigned; enantiomer 2) [Example 82]",
    "parameter": "pIC50",
    "comparison.operator": "=",
    "observed": 4.52
  }
]
